molecular target: human liver GK (Homo sapiens, UniProt P35557); construct: GST (glutathione S-transferase) (N); made in house; host or cells: E. coli; test: GK activation test; type: biochemical; conditions: test compound concentration needed to activate 50% of maximum activation ability; 4 mM 14C-labeled glucose, 2 mM ATP, room temperature, 20 minutes
Sequence (P35557 1-466 isoform P35557-2): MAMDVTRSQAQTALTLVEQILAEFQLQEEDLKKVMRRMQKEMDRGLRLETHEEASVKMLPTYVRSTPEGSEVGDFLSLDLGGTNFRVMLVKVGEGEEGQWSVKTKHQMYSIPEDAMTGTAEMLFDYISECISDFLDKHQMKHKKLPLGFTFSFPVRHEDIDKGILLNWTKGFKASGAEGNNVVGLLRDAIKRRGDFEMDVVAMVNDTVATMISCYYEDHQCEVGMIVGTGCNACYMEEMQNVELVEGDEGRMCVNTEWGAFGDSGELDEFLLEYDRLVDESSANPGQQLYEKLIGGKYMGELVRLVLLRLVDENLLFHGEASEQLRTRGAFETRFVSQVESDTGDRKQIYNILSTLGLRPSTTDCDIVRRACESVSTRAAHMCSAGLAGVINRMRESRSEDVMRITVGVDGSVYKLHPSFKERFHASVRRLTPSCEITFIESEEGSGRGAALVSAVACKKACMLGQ
Reported EC50 values follow for various compounds

Requested field: EC50. Item: `CCN(CC)CCCCOc1ccc(/C(=C\[C@H]2CCC(=O)N2)c2ccc(Cl)c(=O)[nH]2)cc1Cl`
0.5 to 3 µM

Another compound to look at: CCc1ccc(C(C[C@H]2CCC(=O)N2)c2ccc(Cl)c(=O)[nH]2)cc1 (single isomer, unassigned) [Example 4-309]
3 to 10 µM

Also, `CC(C)COCCc1ccc(/C(=C\[C@H]2CCC(=O)N2)c2ccc(Cl)c(=O)[nH]2)cc1` please.
0.5 to 3 µM

What about this compound? O=C1CC[C@H](CC(c2ccc(C(F)F)c(F)c2)c2ccc(C3CC3)c(=O)[nH]2)N1 (single isomer, unassigned) [Example 4-234]
3 to 10 µM

###

target: human liver GK (Homo sapiens); construct: GST (glutathione S-transferase) (N); test: GK activation test; details: test compound concentration needed to activate 50% of maximum activation ability; 4 mM 14C-labeled glucose, 2 mM ATP, room temperature, 20 minutes
measure: EC50

Below: 2 compounds and their reported EC50.
CSc1ccc(/C(=C\CCO)c2ccc(C3CC3)c(=O)[nH]2)cc1 | 3000 to 10000 nM
O=C1CC[C@H](CC(c2ccc(Cl)cc2)c2ccc(C3CC3)c(=O)[nH]2)N1 (single isomer, unassigned) | 500 to 3000 nM

Dear colleague, I am looking for the recorded EC50 of the following compound: `O=C1CC[C@H](/C=C(\c2ccc(F)c(F)c2)c2ccc(C3CC3)c(=O)[nH]2)N1`
500 to 3000 nM

Now consider `O=C1CC[C@H](/C=C(\c2ccc(Cl)c(F)c2)c2ccc(C3CC3)c(=O)[nH]2)N1` and answer again.
10 to 500 nM

###

target: human liver GK (Homo sapiens, UniProt P35557); construct: GST (glutathione S-transferase) (N); made in house; host or cells: E. coli; assay: GK activation test; format: biochemical; details: test compound concentration needed to activate 50% of maximum activation ability; 4 mM 14C-labeled glucose, 2 mM ATP, room temperature, 20 minutes
# EC50 annotations

Some entries whose results are on file:
CS(=O)(=O)c1ccc(/C(=C\[C@H]2CCC(=O)N2)c2ccc(Cl)c(=O)[nH]2)cc1C(F)(F)F [Example 4-56] | 500 to 3000 nM
O=C1CC[C@H](/C=C(\c2ccc(C(F)(F)F)cn2)c2ccc(C3CC3)c(=O)[nH]2)N1 [Example 4-172] | 500 to 3000 nM
NC(=O)c1cccc(/C(=C\[C@H]2CCC(=O)N2)c2ccc(Cl)c(=O)[nH]2)c1 [Example 4-153] | 3000 to 10000 nM

Need EC50, item CC(C)(C)c1ccc(/C(=C\[C@H]2CCC(=O)N2)c2ccc(CCCO)c(=O)[nH]2)cc1 [Example 4-198]
10 to 500 nM

Similarly, Cc1ccc(Oc2ccc(/C(=C/[C@H]3CCC(=O)N3)c3ccc(C(C)(C)C)cc3)[nH]c2=O)cc1 [Example 4-187] ?
500 to 3000 nM

// query: CCc1ccc(C(C[C@H]2CCC(=O)N2)c2ccc(Cl)c(=O)[nH]2)cc1Cl (single isomer, unassigned) [Example 4-324]
500 to 3000 nM
